Target: human recombinant sEH (Homo sapiens, UniProt P34913)
Assay: Fluorescence-based sEH activity assay (PHOME substrate), human enzyme
Conditions: dose-dependent assay; read-out: Human sEH Inhibition IC50
pIC50: −log10 of the molar value.
METRIC NAME: pIC50

INSERT INTO results (molecule, metric_name, result_number) VALUES
  ('O=C(NC12CC3CC(CC(C3)C1)C2)NS(=O)(=O)c1ccc(Cl)cc1 [Compound 4k]', 'pIC50', 8.70),
  ('CC12CC3CC(C)(C1)CC(NC(=O)NS(=O)(=O)c1ccc(OC(F)(F)F)cc1)(C3)C2 [Compound 15a]', 'pIC50', 8.41),
  ('O=C(NC12CC3CC(CC(C3)C1)C2)NS(=O)(=O)c1ccc(F)cc1 [Compound 4j]', 'pIC50', 6.92),
  ('O=C(NC12CC3CC(CC(C3)C1)C2)NS(=O)(=O)c1ccc(OC(F)(F)F)cc1 [Compound 4f]', 'pIC50', 8.77),
  ('O=C(NC12CC3CC(CC(C3)C1)C2)NS(=O)(=O)c1ccccc1 [Compound 4a]', 'pIC50', 7.00),
  ('CC12CC3CC(C)(C1)CC(NC(=O)NS(=O)(=O)c1ccc4ccccc4c1)(C3)C2 [Compound 15b]', 'pIC50', 6.02),
  ('O=S(=O)(NC(=S)NC12CC3CC(CC(C3)C1)C2)c1ccc(OC(F)(F)F)cc1 [Compound 6d]', 'pIC50', 8.33),
  ('O=C(NC1CCN(C(=O)NC23CC4CC(CC(C4)C2)C3)CC1)NS(=O)(=O)c1ccc(OC(F)(F)F)cc1 [Compound 18]', 'pIC50', 7.41),
  ('O=C(NC12CC3CC(CC(C3)C1)C2)NS(=O)(=O)c1ccc2ccccc2c1 [Compound 4l]', 'pIC50', 8.92),
  ('COc1ccc(S(=O)(=O)NC(=O)NC23CC4CC(CC(C4)C2)C3)cc1 [Compound 4e]', 'pIC50', 8.53),
  ('O=S(=O)(NC(=S)NC12CC3CC(CC(C3)C1)C2)c1ccccc1 [Compound 6a]', 'pIC50', 6.89),
  ('Cc1ccc(S(=O)(=O)NC(=O)NC23CC4CC(CC(C4)C2)C3)cc1 [Compound 4b]', 'pIC50', 7.79);

----------
Target: human recombinant sEH (Homo sapiens, UniProt P34913)
Construct: purchased Cayman Chemical 10011671
Sequence (P34913 1-555): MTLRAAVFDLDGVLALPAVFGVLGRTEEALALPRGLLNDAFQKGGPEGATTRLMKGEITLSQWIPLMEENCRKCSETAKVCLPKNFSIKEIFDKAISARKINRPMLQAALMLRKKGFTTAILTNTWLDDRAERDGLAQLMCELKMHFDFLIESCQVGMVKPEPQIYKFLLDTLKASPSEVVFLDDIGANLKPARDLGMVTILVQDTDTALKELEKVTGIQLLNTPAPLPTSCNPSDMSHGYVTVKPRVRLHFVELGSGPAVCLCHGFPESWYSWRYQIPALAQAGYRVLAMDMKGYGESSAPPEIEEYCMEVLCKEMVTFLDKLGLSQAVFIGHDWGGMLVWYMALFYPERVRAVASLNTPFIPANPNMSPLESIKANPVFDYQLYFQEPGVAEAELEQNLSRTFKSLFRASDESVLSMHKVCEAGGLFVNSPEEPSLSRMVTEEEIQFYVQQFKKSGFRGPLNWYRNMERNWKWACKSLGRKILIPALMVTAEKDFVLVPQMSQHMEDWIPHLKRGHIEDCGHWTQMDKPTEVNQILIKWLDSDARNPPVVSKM
Assay: Fluorescence-based sEH activity assay (PHOME substrate), human enzyme
Format: biochemical
Label scheme for Human sEH % Inhibition: lower than 6% is f, 6% and above is t.

INSERT INTO assay_data (compound, system, assigned_label) VALUES
  ('O=C(NC12CC(F)(C1)C2)NS(=O)(=O)c1ccc(OC(F)(F)F)cc1 [Compound 11c]', 'human recombinant sEH (Homo sapiens, UniProt P34913)', 'f'),
  ('O=S(=O)(/N=C(\NNc1ccccc1)NC12CC3CC(CC(C3)C1)C2)c1ccc(OC(F)(F)F)cc1', 'human recombinant sEH (Homo sapiens, UniProt P34913)', 'f'),
  ('CN(C)N/C(=N\S(=O)(=O)c1ccc(OC(F)(F)F)cc1)NC12CC3CC(CC(C3)C1)C2', 'human recombinant sEH (Homo sapiens, UniProt P34913)', 't'),
  ('O=C(NC12CC3CC(CC(C3)C1)C2)NS(=O)(=O)c1ccccc1OC(F)(F)F', 'human recombinant sEH (Homo sapiens, UniProt P34913)', 't'),
  ('CC(C)(C)c1ccc(S(=O)(=O)NC(=S)NC23CC4CC(CC(C4)C2)C3)cc1', 'human recombinant sEH (Homo sapiens, UniProt P34913)', 'f'),
  ('O=C(NC12CC3CC(CC(C3)C1)C2)NS(=O)(=O)c1ccc(C(F)(F)F)cc1', 'human recombinant sEH (Homo sapiens, UniProt P34913)', 't'),
  ('O=C(NC12CC3CC(CC(C3)C1)C2)NS(=O)(=O)c1ccc(OC(F)(F)F)cc1', 'human recombinant sEH (Homo sapiens, UniProt P34913)', 't'),
  ('O=C(NC1CCNCC1)NS(=O)(=O)c1ccc(OC(F)(F)F)cc1', 'human recombinant sEH (Homo sapiens, UniProt P34913)', 't');

Where do the numbers come from? From paper PMC11242993.
